Values from patent US10717716B2

Reported IC50 values for the following compounds.
- ASSAYED TARGET: human recombinant HDAC6 (Homo sapiens, UniProt Q9UBN7)
- Construct: purchased Calbiochem 382180
- Sequence (Q9UBN7 1-1215): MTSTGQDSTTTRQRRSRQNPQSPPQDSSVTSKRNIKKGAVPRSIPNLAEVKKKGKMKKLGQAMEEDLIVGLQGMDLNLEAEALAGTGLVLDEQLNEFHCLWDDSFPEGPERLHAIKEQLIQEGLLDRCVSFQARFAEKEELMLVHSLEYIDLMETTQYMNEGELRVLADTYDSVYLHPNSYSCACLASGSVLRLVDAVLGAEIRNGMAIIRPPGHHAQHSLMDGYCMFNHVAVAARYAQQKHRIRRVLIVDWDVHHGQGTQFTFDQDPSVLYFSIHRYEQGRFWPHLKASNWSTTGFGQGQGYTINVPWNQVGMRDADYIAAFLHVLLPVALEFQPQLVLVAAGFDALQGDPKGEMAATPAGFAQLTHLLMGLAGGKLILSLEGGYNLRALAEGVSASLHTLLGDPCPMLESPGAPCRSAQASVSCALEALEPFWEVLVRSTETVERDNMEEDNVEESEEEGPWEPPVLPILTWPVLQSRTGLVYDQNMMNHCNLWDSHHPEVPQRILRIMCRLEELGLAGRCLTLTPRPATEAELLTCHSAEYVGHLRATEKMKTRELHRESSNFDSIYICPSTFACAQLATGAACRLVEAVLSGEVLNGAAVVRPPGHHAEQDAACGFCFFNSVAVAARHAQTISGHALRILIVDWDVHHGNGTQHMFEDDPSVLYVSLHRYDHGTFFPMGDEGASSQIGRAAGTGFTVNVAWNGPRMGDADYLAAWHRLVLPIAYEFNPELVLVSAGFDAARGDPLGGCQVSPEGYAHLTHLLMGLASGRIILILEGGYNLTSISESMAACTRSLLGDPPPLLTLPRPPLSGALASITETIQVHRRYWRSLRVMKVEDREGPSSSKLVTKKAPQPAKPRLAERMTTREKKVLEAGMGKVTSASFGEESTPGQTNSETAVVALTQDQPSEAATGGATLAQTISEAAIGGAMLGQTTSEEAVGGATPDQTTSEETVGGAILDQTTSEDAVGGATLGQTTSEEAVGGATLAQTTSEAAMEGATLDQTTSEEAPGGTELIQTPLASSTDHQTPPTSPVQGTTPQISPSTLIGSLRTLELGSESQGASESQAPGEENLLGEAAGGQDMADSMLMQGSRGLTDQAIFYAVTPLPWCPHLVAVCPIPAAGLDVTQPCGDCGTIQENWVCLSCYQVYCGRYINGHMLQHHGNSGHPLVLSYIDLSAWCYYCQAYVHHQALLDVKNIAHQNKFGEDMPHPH
- METHOD NOTES: HDAC6 enzyme activity inhibition assay (HDAC Fluorimetric Drug Discovery Kit)
- Format: biochemical
- MEASUREMENT CONTEXT: human recombinant HDAC6, same protocol as HDAC1; read-out: HDAC6
Write the number in nM without appending the unit.

Would you please look over these solved cases?
CCN1CCN(C(=O)N(Cc2ccc(-c3nnc(C(F)F)o3)cc2)c2cccc(OC)c2)CC1 [Compound 21889] : 98
O=C(N1CCOCC1)N(Cc1ccc(-c2nnc(C(F)(F)F)o2)cc1F)c1ccc(F)cc1F [Compound 21859] : 133
C[C@@H]1CN(C(=O)N(Cc2ccc(-c3nnc(C(F)(F)F)o3)cc2)c2ccccc2)C[C@H](C)N1 [Compound 21385] : 57
O=C(N1CCN(C2COC2)CC1)N(Cc1ccc(-c2nnc(C(F)F)o2)cc1)c1ccc(Cl)cc1 [Compound 21945] : 193
CCN(Cc1ccc(-c2nnc(C(F)(F)F)o2)cc1)C(=O)N1CCOCC1 [Compound 21399] : 780
O=C(NCC1CCOCC1)N(Cc1ccc(-c2nnc(C(F)(F)F)o2)cc1)c1ccccc1 [Compound 21357] : 472
Cn1ncc2ccc(-c3ccc(N(Cc4ccc(-c5nnc(C(F)F)o5)cc4)C(=O)N4CCS(=O)(=O)CC4)cc3)cc21 [Compound 21488] : 111
O=C(N1CCOCC1)N(Cc1ccc(-c2nnc(C(F)F)o2)cc1F)c1ccc(F)c(Cl)c1 [Compound 21929] : 57
CCN1CCN(C(=O)N(Cc2ccc(-c3nnc(C(F)F)o3)cn2)c2cccc(Cl)c2)CC1 [Compound 21879] : 26
CCN1CCN(C(=O)N(Cc2ccc(-c3nnc(C(F)F)o3)cn2)c2cccc(F)c2)CC1 [Compound 21885] : 18

Recorded result, COc1cccc(N(Cc2ccc(-c3nnc(C(F)(F)F)o3)cc2)C(=O)N2CCS(=O)(=O)CC2)c1 [Compound 21441] , IC50: 139

Recorded result, CN(C)CCCN1CCN(CCNC(=O)N(Cc2ccc(-c3nnc(C(F)F)o3)cc2F)c2ccccc2)CC1 [Compound 22002] , IC50: 118

Recorded result, O=C(N1CCS(=O)(=O)CC1)N(Cc1ccc(-c2nnc(C(F)F)o2)cc1F)c1ccc(OC2CCN(Cc3ccccc3)CC2)cc1 [Compound 21924] , IC50: 213

Recorded result, O=C(N1CCOCC1)N(Cc1ccc(-c2nnc(C(F)(F)F)o2)cn1)c1cccc(Cl)c1 [Compound 21852] , IC50: 131

Recorded result, CN1CCCN(C(=O)N(Cc2ccc(-c3nnc(C(F)F)o3)cc2F)c2ccccc2)CC1 [Compound 21423] , IC50: 26.5
